Measurement target: cAMP and cAMP-inhibited cGMP 3',5'-cyclic phosphodiesterase 10A (Homo sapiens)
Sequence (Q9Y233 whole entry): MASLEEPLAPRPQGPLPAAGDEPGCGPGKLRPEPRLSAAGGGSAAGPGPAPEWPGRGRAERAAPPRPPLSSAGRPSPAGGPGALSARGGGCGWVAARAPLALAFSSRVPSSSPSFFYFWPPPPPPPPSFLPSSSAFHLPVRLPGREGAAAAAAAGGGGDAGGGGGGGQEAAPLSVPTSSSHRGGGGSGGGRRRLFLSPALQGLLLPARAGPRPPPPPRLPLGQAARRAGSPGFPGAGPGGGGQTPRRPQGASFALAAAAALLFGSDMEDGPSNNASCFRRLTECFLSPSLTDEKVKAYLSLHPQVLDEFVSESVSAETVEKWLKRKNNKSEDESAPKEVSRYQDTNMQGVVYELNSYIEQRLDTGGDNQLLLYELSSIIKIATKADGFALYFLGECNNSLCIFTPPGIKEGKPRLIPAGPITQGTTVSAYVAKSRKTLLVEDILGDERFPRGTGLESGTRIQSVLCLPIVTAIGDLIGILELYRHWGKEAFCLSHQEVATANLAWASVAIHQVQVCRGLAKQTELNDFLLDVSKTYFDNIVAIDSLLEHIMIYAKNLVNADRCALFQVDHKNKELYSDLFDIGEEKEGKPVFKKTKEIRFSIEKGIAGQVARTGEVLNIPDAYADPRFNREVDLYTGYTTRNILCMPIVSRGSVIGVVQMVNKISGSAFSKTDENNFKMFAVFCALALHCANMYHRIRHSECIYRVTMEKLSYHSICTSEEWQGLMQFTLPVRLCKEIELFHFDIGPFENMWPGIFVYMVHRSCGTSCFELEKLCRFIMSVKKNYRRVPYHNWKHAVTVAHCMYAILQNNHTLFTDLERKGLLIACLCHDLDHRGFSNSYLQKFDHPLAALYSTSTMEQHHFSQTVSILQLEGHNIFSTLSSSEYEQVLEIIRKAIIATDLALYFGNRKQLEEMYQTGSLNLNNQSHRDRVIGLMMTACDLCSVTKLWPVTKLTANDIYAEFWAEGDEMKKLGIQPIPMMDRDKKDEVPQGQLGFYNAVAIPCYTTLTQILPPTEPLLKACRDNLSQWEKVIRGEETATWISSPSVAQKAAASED
Method summary: Inhibition of human recombinant full length PDE10A2 expressed in SF9 cells infected with baculovirus expression system using cAMP as substrate incubated 30 mins prior to substrate addition measured after 60 mins by HTRF method
Measurement type: IC50 (nM)

These solved cases illustrate the format of a correct answer.
# Smiles, IC50, nM
data = [
    ("Cn1cc(-n2cnc3ccc(OCc4ccc5ccccc5n4)cc32)cn1", 774),
    ("COCc1nc2ccc(OCc3ccc4ccccc4n3)cc2n1-c1ccccc1", 166),
    ("c1ccc(-n2c(C3CC3)nc3ccc(OCc4ccc5ccccc5n4)cc32)cc1", 180),
    ("CCc1nc2ccc(OCc3ccc4ccccc4n3)cc2n1-c1ccccc1", 208),
    ("CC(C)Cc1nc2ccc(OCc3ccc4ccccc4n3)cc2n1-c1ccccc1", 849),
]

1: CN(C)c1nc2ccc(OCc3ccc4ccccc4n3)cc2n1-c1ccccc1
2: CCCc1nc2ccc(OCc3ccc4ccccc4n3)cc2n1-c1ccccc1
3: CC(C)c1nc2ccc(OCc3ccc4ccccc4n3)cc2n1-c1ccncc1
Req: Rank entries according to their IC50, from the largest number down. Please write the labels in the order that was asked for.
Resp: 3, 2, 1

Values compiled from ChEMBL document CHEMBL3091396.
